System Tested: BRD4-BD1 (Homo sapiens (Human))
Procedure Details: BRD4 AlphaScreen Assay (Example A2), BRD4-BD1
Format: binding
Cond: Assay A2, AlphaScreen, BRD4-BD1; read-out: BRD4 BD-1 enzyme IC50
pIC50: −log10 of the molar value.
Measured Attribute: pIC50

Use these answered entries as a reference point.
Molecule | pIC50
Cc1noc(C)c1-c1cc(-c2cn[nH]c2C)c2[nH]c(=O)n3c2c1OCC3c1ccccn1 (stereo not shown) | 6.00 to 7.00
Cc1noc(C)c1-c1cc(-c2ccnn2C)c2[nH]c(=O)n3c2c1OC[C@@H]3c1ccccn1 [Example 85, 2,2,2-trifluoroacetate] | 5.00 to 6.00
Cc1noc(C)c1-c1ccc2[nH]c(=O)n3c2c1OC(C(=O)NCCO)C3c1ccccc1 (single isomer, unassigned) [Example 48B] | 6.00 to 7.00
Cc1noc(C)c1-c1ccc2nc(N3CC(O)C3)n3c2c1OCC3c1cccnc1 (single isomer, unassigned) [Example 160A] | 5.00 to 6.00
Cc1noc(C)c1-c1ccc2nc(N3CC(O)C3)n3c2c1OCC3c1cccnc1 (single isomer, unassigned) [Example 160B] | 5.00 to 6.00

Recorded pIC50 (molecule Cc1noc(C)c1-c1cc(-c2cncnc2)c2[nH]c(=O)n3c2c1OC[C@@H]3c1ccccn1 [Example 84, 2,2,2-trifluoroacetate] ): 6.00 to 7.00

Recorded pIC50 (molecule Cc1noc(C)c1-c1c(Cl)c(Cl)c2[nH]c(=O)n3c2c1OC[C@@H]3c1ccccn1 [Example 252, bistrifluoroacetate] ): 6.00 to 7.00

###

System Tested: BRD4-BD2 (Homo sapiens (Human), UniProt O60885)
Procedure Details: BRD4 AlphaScreen Assay (Example A2), BRD4-BD2
Type: binding
Cond: Assay A2, AlphaScreen, BRD4-BD2; read-out: BRD4 BD-2 enzyme IC50
Reported IC50 is given for each of the following molecules.

Use these answered entries as a reference point.
Molecule | Result
Cc1noc(C)c1-c1ccc2nc(C3=CCN(C(=O)OC(C)(C)C)C3)n3c2c1OC[C@@H]3c1ccccn1 | < 100 nM
Cc1noc(C)c1-c1cc(F)c2[nH]c(=O)n3c2c1OCC3c1ccccn1 (centres unmarked) [Example 265A] | 1000 to 10000 nM
CNC(=O)C1Oc2c(-c3c(C)noc3C)ccc3[nH]c(=O)n(c23)C1c1ccccn1 (centres unmarked) [Example 76, 2,2,2-trifluoroacetate] | 100 to 1000 nM

Entry `Cc1noc(C)c1-c1ccc2nc(N3CC[C@@H](N(C)C(=O)CC#N)C3)n3c2c1OC[C@@H]3c1ccccn1` ; assay system BRD4-BD2 (Homo sapiens (Human), UniProt O60885); IC50 recorded at < 100 nM

Entry Cc1noc(C)c1-c1ccc2nc(N3CC(O)C3)n3c2c1OCC3c1cccnc1 (single isomer, unassigned) [Example 160C] ; assay system BRD4-BD2 (Homo sapiens (Human), UniProt O60885); IC50 recorded at 1000 to 10000 nM

Entry Cc1noc(C)c1-c1ccc2nc(C3CCN(S(C)(=O)=O)C3)n3c2c1OC[C@@H]3c1ccccn1 (mixture of isomers) ; assay system BRD4-BD2 (Homo sapiens (Human), UniProt O60885); IC50 recorded at < 100 nM

Entry Cc1noc(C)c1-c1cc(C(C)O)c2[nH]c(=O)n3c2c1OC[C@@H]3c1ccccn1 (single isomer, unassigned) [Example 144B] ; assay system BRD4-BD2 (Homo sapiens (Human), UniProt O60885); IC50 recorded at < 100 nM

###

Reported IC50 is given for each of the following molecules.
System Tested: BRD4-BD1 (Homo sapiens (Human))
Procedure Details: BRD4 AlphaScreen Assay (Example A1), BRD4-BD1
Assay type: binding
Cond: Assay A1, 3.8 nM BRD4-BD1, 50 nM H4Ac4 peptide; read-out: BRD4 BD-1 enzyme IC50
Experimental: BRD4-BD1 and BRD4-BD2 assays were conducted in white 384-well polystyrene plate in a final volume of 20 μL for BD1 and 40 μL for BD2. Inhibitors were first serially diluted in DMSO and added to the plate wells before the addition of other reaction components. […] After plate sealing, the plate was incubated in the dark at room temperature for 75 min. before reading on a PHERAstar FS plate reader (BMG Labtech). […]

Use these answered entries as a reference point.
Molecule | IC50
Cc1noc(C)c1-c1ccc2[nH]c(=O)n3c2c1OCC3c1ccccn1 (single isomer, unassigned) [Example 14] | 1000 to 10000 nM
Cc1noc(C)c1-c1ccc2[nH]c(=O)n3c2c1OCC3C1CCCO1 (single isomer, unassigned) [Example 18B] | 100 to 1000 nM
Cc1noc(C)c1-c1ccc2nc(N(C)C)n3c2c1OCC3c1ccccc1 (stereo not shown) | < 100 nM
Cc1n[nH]c(C)c1-c1ccc2[nH]c(=O)n3c2c1OCC3c1ccccc1 (stereo not shown) | 1000 to 10000 nM
Cc1noc(C)c1-c1ccc2ncn3c2c1OCC3c1ccccc1 (stereo not shown) | < 100 nM

Recorded IC50 (molecule Cc1noc(C)c1-c1ccc2nc(N3CCC(O)CC3)n3c2c1OCC3c1ccccc1 (stereo not shown) ): < 100 nM

Recorded IC50 (molecule Cc1noc(C)c1-c1ccc2nc(NC(C)CO)n3c2c1OCC3c1ccccc1 (single isomer, unassigned) [Example 30] ): < 100 nM

###

Reported IC50 is given for each of the following molecules.
System Tested: BRD4-BD2 (Homo sapiens (Human), UniProt O60885)
Procedure Details: BRD4 AlphaScreen Assay (Example A2), BRD4-BD2
Type: binding
Cond: Assay A2, AlphaScreen, BRD4-BD2; read-out: BRD4 BD-2 enzyme IC50

Use these answered entries as a reference point.
Molecule | IC50
Cc1n[nH]c(C)c1-c1cc(-c2c(C)noc2C)c2c3c1[nH]c(=O)n3C(c1ccccn1)CO2 (stereo not shown) | 100 to 1000 nM
Cc1noc(C)c1-c1ccc2nc(C3CCN(C(=O)C4CC4)CC3)n3c2c1OC[C@@H]3c1ccccn1 | < 100 nM
Cc1noc(C)c1-c1cc(F)c2nc(N(C)C)n3c2c1OCC3c1cccnc1 (stereo not shown) | < 100 nM
Cc1noc(C)c1-c1cc(C(C)O)c2[nH]c(=O)n3c2c1OC[C@@H]3c1ccccn1 (single isomer, unassigned) [Example 144A] | < 100 nM
Cc1noc(C)c1-c1cc(CO)c2[nH]c(=O)n3c2c1OCC3c1ccccn1 (stereo not shown) | < 100 nM

Recorded IC50 (molecule Cc1noc(C)c1-c1ccc2[nH]c(=O)n3c2c1OCC3c1cccnc1CN (stereo not shown) [Example 130, bis(trifluoroacetate)] ): < 100 nM

Recorded IC50 (molecule Cc1noc(C)c1-c1c(Cl)c(Cl)c2[nH]c(=O)n3c2c1OC[C@@H]3c1ccccn1 [Example 252, bistrifluoroacetate] ): 100 to 1000 nM

###

Reported pIC50 is given for each of the following compounds.
System Tested: BRD4-BD1 (Homo sapiens (Human), UniProt O60885)
Procedure Details: BRD4 AlphaScreen Assay (Example A2), BRD4-BD1
Type: binding
Cond: Assay A2, AlphaScreen, BRD4-BD1; read-out: BRD4 BD-1 enzyme IC50
pIC50: −log10 of the molar value.

Use these answered entries as a reference point.
Compound | pIC50
Cc1noc(C)c1-c1ccc2nc(C3CCN(C(=O)C4CC4)C3)n3c2c1OC[C@@H]3c1ccccn1 (single isomer, unassigned; diastereomer 1) [Example 114A] | > 7.00
Cc1noc(C)c1-c1ccc2nc(C3CCCN(C(=O)C4CC4)C3)n3c2c1OC[C@@H]3c1ccccn1 (mixture of isomers) | > 7.00
Cc1noc(C)c1-c1ccc2nc(C3CCN(S(C)(=O)=O)C3)n3c2c1OC[C@@H]3c1ccccn1 (mixture of isomers) | > 7.00

Recorded pIC50 (compound Cc1noc(C)c1-c1ccc2[nH]c(=O)n3c2c1OC(C(N)=O)C3c1ccccn1 (stereo not drawn) [Example 77, 2,2,2-trifluoroacetate] ): 6.00 to 7.00

Recorded pIC50 (compound Cc1noc(C)c1-c1ccc2[nH]c(=O)n3c2c1OCC3(C)c1ccccn1 (stereo not drawn) ): > 7.00

Recorded pIC50 (compound `CC(=O)N1CCC(c2nc3ccc(-c4c(C)noc4C)c4c3n2[C@@H](c2ccccn2)CO4)CC1` ): > 7.00

###

Reported pIC50 is given for each of the following compounds.
System Tested: BRD4-BD1 (Homo sapiens (Human), UniProt O60885)
Procedure Details: BRD4 AlphaScreen Assay (Example A2), BRD4-BD1
Assay type: binding
Cond: Assay A2, AlphaScreen, BRD4-BD1; read-out: BRD4 BD-1 enzyme IC50
pIC50: −log10 of the molar value.

Use these answered entries as a reference point.
Compound | Result
Cc1noc(C)c1-c1ccc2nc(C3CCCN(S(C)(=O)=O)C3)n3c2c1OC[C@@H]3c1ccccn1 (mixture of isomers) | > 7.00
Cc1noc(C)c1-c1ccc2nc(N3CC(O)C3)n3c2c1OCC3c1cccnc1 (single isomer, unassigned) [Example 160D] | 5.00 to 6.00
Cc1noc(C)c1-c1cc(-c2cnn(C)c2)c2[nH]c(=O)n3c2c1OC[C@@H]3c1ccccn1 [Example 81, 2,2,2-trifluoroacetate] | 6.00 to 7.00
Cc1noc(C)c1-c1ccc2[nH]c(=O)n3c2c1OCC3c1cccnc1C(=O)NC1CC1 (single isomer, unassigned) | > 7.00

Recorded pIC50 (compound Cc1noc(C)c1-c1ccc2nc(C3CCN(C(=O)C4CC4)C3)n3c2c1OC[C@@H]3c1ccccn1 (single isomer, unassigned; diastereomer 2) [Example 114B] ): > 7.00

Recorded pIC50 (compound Cc1noc(C)c1-c1cc(C)c2[nH]c(=O)n3c2c1OCC3c1ccccn1 (stereo not drawn) ): 5.00 to 6.00
